Source listed as patent US20240400718A1.

Each entry below lists one item and its recorded Reactivity (%) value.
# Study target: S#085: VL-L1-VH CAR-T
# Measurement protocol: flow cytometry on CAR-T cells; PE-labeled secondary antibody; PE-positive cells / total cells
Use % as the unit, but write only the number.

1) 4B9-B11 (antibody, V domains shown) VH: QMQLKESGPGLVQPSETLSLTCTVSGFSLTSYSVSWVRQPSGKGPEWMGRMYYDGDTAYNSALKSRLSISRDTSKNQVFLKMNSLQTDDTGTYYCTRSIGAEDYWGQGVMVTVSS VL: TSYELIQPPSASVTLGNTVSLTCVGDELPKRYAYWYQQKPDQSIVRVIYEDSKRPSGISDRFSGSSSGTTATLTIRDAQNEDEADYYCHSTYSDDKLRIFGGGTKLTVLG ... 49.6
2) 2D12-B12 (antibody, V domains shown) VH: EVKLVESGGGLVQPGRSLKLSCAASGFNFNDYWMGWVRQAPGKGLEWIGEIKKDSSIINYIPSLKDKFTISRDNAQNTLYLQMSKLGSEDTAIYYCARGVEYYGYHYWGQGTLVTVSS VL: DIVMTQSPSSLAVSAGETVTINCKSSQSLLYSGNQKNYLAWYQQKPGQSPKLLIYWASTRHSGVPARFIGSGSGSDFTLTISSVQAEDLAIYCCQQYYDIPYTFGAGTKLELK ... 0.8
3) 3A4-A10-7 (antibody, V domains shown) VH: QVQLQQSGAALVKPGASVKMSCKASGYTFTDCWVSWVKQSHGKSLEWIGEIHPNSGTTNFNEKFKGKATLTVDKSTSTAYMELSRLTSEDSAIYYCTRAYGGYPFDYWGQGVMVTVSS VL: ADLVLTQPKSVSTSLESTVKLSCKLNSGNIGRYYMHWYQQHEGRSPTNMIYRDDKRPDGVPDRFSGSIDSSSNSAFLTINNVQTEDEAIYFCHSYDSSINIFGGGTKLTVLG ... 2.2

Prompt: Quote Reactivity (%) reported for 3E7-C1 (antibody, V domains shown) VH: QVQMKESGPGLVQPSETLSLTCTVSGFSLTSYGVSWVRQPSGKGPEWMGRLWNDGDTAYNSALKSRLSISRDTSKNQVFLKMNSLQTDDTGTYYCTTMNGYKDYWGQGVMVTVSS VL: TSYELIQPPSASVTLGNTVSLTCVGDELPKRYAYWYQQKPDQSIVRVIYEDSKRPSGISDRFSGSSSGTTATLTIRDAQAEDEADYYCHSTYSDDKLRIFGGGTKLTVLG please.
Completion: 41.4
